B1: COUP transcription factor 1, residues 83 to 159; numbered along this chain, P10589 (parent)
chain: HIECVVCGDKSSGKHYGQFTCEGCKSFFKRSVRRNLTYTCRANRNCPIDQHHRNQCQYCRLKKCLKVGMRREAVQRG

variants of: B1; assay: abundance fitness (aPCA) (normalised: wild type 0, dead -1); higher = more abundant; growth selection in yeast, the domain comes from the species named; settings: Homo sapiens
Form field: abundance fitness (one value per entry).

{"columns": ["VARIANT ID", "abundance fitness"],
 "data": [
  ["K25T", 0.011],
  ["A42K", 0.002],
  ["K66T", 0.025],
  ["E72I", -0.325],
  ["K62G", -0.143],
  ["A73L", -0.04],
  ["T39S", 0.113],
  ["R76C", 0.082],
  ["P47N", -0.679],
  ["I48K", -0.661],
  ["K63T", -0.356],
  ["G17K", -0.452],
  ["S31L", -0.571],
  ["Y38I", -0.24],
  ["F28L", -0.754],
  ["C21M", -1.01],
  ["R71Q", 0.049],
  ["C24W", -0.707],
  ["K25S", 0.067],
  ["L61T", -0.771],
  ["T20M", -0.079],
  ["R70Q", 0.112],
  ["S26H", -0.137],
  ["C59I", -1],
  ["G68H", -0.775],
  ["L36G", -0.17],
  ["P47I", -0.137],
  ["P47M", -0.267],
  ["R44H", -0.003],
  ["C56R", -0.886],
  ["H52D", -0.092],
  ["Y38C", -0.745],
  ["F19W", -0.01],
  ["N45C", -0.202],
  ["Y16M", -0.154],
  ["N45W", -0.049],
  ["V67F", -0.115],
  ["R44Q", -0.048],
  ["K66Y", -0.033],
  ["T37L", -0.057],
  ["N54M", 0.015],
  ["F19Y", 0.352],
  ["M69Y", -0.77],
  ["Y16V", -0.151],
  ["K29N", -0.01],
  ["Y16W", 0.132]
]}
